# IC50 annotations
# SYSTEM: TrkB WT (Homo sapiens, UniProt Q16620)
# Sequence (Q16620 32-822): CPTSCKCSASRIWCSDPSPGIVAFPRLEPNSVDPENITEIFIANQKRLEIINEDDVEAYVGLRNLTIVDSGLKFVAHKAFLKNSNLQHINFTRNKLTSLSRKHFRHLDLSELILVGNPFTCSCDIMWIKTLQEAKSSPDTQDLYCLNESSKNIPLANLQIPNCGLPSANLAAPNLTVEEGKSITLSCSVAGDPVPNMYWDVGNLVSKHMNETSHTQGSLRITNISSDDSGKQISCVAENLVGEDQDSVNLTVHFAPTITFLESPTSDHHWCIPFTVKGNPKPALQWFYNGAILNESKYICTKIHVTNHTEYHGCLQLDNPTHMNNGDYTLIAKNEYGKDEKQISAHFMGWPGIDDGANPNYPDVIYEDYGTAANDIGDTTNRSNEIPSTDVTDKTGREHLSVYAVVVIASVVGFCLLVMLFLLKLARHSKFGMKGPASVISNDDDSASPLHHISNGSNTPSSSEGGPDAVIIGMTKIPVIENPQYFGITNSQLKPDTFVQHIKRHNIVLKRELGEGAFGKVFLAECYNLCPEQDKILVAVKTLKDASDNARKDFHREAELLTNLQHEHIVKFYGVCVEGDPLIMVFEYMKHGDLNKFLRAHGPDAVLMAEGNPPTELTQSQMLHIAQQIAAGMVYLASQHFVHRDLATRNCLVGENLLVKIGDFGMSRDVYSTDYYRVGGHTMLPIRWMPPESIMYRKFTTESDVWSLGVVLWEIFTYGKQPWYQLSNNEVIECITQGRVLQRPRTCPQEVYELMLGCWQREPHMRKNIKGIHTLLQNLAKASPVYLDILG
# ASSAY COMMENT: Trk enzyme assay ([33P] incorporation into poly-EAY)
# Type: biochemical
# MEASUREMENT SETUP: wild-type TrkB enzyme; 22° C., 60 minutes
I only need the number, in nM, no unit after it.

molecule="CC1(C)CNC(=O)c2cnn3ccc(nc23)N2CCC[C@@H]2c2cc(F)cnc2OC1 [Compound 25]" measured_attribute=IC50 unit_abbreviation=nM reading=8.7
molecule="O=C1NC[C@H](O)COc2ccc(F)cc2[C@H]2CC(F)(F)CN2c2ccn3ncc1c3n2 [Compound 26]" measured_attribute=IC50 unit_abbreviation=nM reading=3.3
molecule="O=C(NC1CC1)c1cnn2ccc(N3CCC[C@@H]3c3cncc(F)c3)nc12 [Compound 13]" measured_attribute=IC50 unit_abbreviation=nM reading=3.5
molecule="CC(=O)N1CCOc2ccc(F)cc2[C@H]2CCCN2c2ccn3ncc(c3n2)C1 [Compound 21]" measured_attribute=IC50 unit_abbreviation=nM reading=5.6
molecule="O=C1NCCCOc2ccc(F)cc2[C@H]2CCCN2c2ccn3ncc1c3n2 [Compound 19]" measured_attribute=IC50 unit_abbreviation=nM reading=4.4
molecule="O=C(Nc1cnn2ccc(N3CCC[C@@H]3c3cc(F)ccc3Cl)nc12)N1CC(O)C1 [Compound 9]" measured_attribute=IC50 unit_abbreviation=nM reading=4.6

Now, please, on to the next molecule.
INPUT: May I ask what IC50 has been recorded for O=C1NCC(F)(F)COc2ncc(F)cc2[C@H]2CCCN2c2ccn3ncc1c3n2 [Compound 23] ?
OUTPUT: 6.1
